system: DU-145 prostate; test: NCI tumour cell line growth inhibition, 48 h; in the data active = GI50 below about 0.43 µM; inactive = the rest
Labels: y (active), n (inactive)

* O=c1[nH]c2nc(NC3CCOCC3)ncc2cc1Oc1ccc(F)cc1F | n
* COc1ccc2[nH]c(O)c(/C=c3/cc4c(c(-c5ccc(F)c(OC)c5)n3)=Nc3ccccc3-4)c2c1 | n
* O=P1(S)OC[C@H]2O[C@@H]3[C@H](F)[C@@H]2OP(O)(=S)OC[C@H]2O[C@H]([C@H](F)[C@@H]2O1)n1cnc2c(ncnc21)NC/C=C/CNc1ncnc2c1ncn23 (some centres undefined) | n
* COc1ccc(C(O)c2cc3c(N)c(C(=O)Nc4cccc(Cl)c4)sc3nc2C)cc1 (centres undefined) | n
* CC(C)=CCC(OC(=O)C=C(C)C)C1=CC(=O)c2c(O)ccc(O)c2C1=O (centres undefined) | n
* Cc1nc2ccc(NC(=O)CCNC(=O)CCCc3ccc(CC(C(=O)O)C(=O)O)cc3)cc2s1 | n
* Cc1nc(Nc2ccccn2)sc1C(=O)/C=C/c1ccc(Cl)cc1 | y
* CN(C)c1nc2ccccc2c2c1c1c(n2Cc2ccccc2)-c2ccccc2C1=O | n
* COc1cc(C2c3cc4c(cc3C3OC[C@@H]2C3CO)OCO4)cc(OC)c1OC (some centres undefined) | n

====

Listing of recorded TGI by entry.
test system: M14 melanoma; assay: NCI tumour cell line growth inhibition, 48 h
metric: TGI

* O=C(Nc1ccc(-c2nc(-c3cccc(OCCN4CCOCC4)c3)c(-c3ccnc(Br)c3)[nH]2)cc1)c1ccccc1 | 4.36 µM
* Cc1ccc(S(=O)(=O)Nc2nnc(S(N)(=O)=O)s2)cc1 | > 100 µM
* CC1=Nc2ccccc2/C1=C\c1c(C)[nH]c2ccccc12 | > 100 µM
* c1cncc(CNCc2cccnc2)c1 | > 100 µM
* N#Cc1cc2c(n(C3OC(CO)C(O)C(O)C3O)c1=S)CCCCCC2 (stereo unspecified) | > 100 µM
* Cc1nc(Nc2cccnc2)sc1C(=O)/C=C/c1ccc(Cl)cc1 | 19.5 µM

====

system: KM20L2 colon; test: NCI tumour cell line growth inhibition, 48 h
Listing of recorded TGI by entry.
metric: TGI

- O=C1CC(c2[nH]nc3ccccc23)C(=O)N1c1ccccc1 (centres undefined): > 100 µM
- COc1cccc(N[C@@H]2c3cc4c(cc3C(c3cc(OC)c(O)c(OC)c3)[C@H]3C(=O)OCC32)OCO4)c1 (some centres undefined): > 29.4 µM
- NNC(=O)C(=O)N/N=C1\CCC(=O)CC1C(=O)CCC(=O)Nc1ccc(Cl)cc1 (centres undefined): > 100 µM
- CCOC(=O)N1CCc2cc(OC)c(OC)cc2/C1=C\c1ccc(OC)c(OC)c1: 65.4 µM
- CC(=O)O[C@]1(C)OC(=O)[C@@H](CC(C)C)N1[N+](=O)[O-]: > 100 µM
- Cc1ccc(S(=O)(=O)c2ccccc2[N+](=O)[O-])cc1: > 100 µM
- Cc1cc(=O)[nH]c(NN2C(Cl)C(=O)C2c2ccc([N+](=O)[O-])cc2)n1 (centres undefined): 56.7 µM
- O=c1ncccn1C1OC(CO)C(O)C1O (centres undefined): > 100 µM
- Cc1c(NC(=S)NC(=O)c2ccc([N+](=O)[O-])cc2)c(=O)n(-c2ccccc2)n1C: > 100 µM

====

test system: LOX IMVI melanoma; experiment: NCI tumour cell line growth inhibition, 48 h; in the data active = GI50 below about 0.43 µM; inactive = the rest
Labels: label 1 for active, label 0 for inactive

* O=C1CCC(N2C(=O)c3ccccc3C2=O)C(=O)N1 (centres undefined) | label 0
* COc1ccc(C(=O)NNc2nc(Cl)nc(N3CCN(C(c4ccccc4)c4ccccc4)CC3)n2)cc1 | label 0
* O=c1/c(=C\c2ccc(F)cc2)sc2n1C(c1ccc(F)cc1)C1=C(N=2)c2ccc3ccccc3c2OCC1 (centres undefined) | label 0
* Cc1cc(O)c(C2=NN(c3ccc(S(N)(=O)=O)cc3)C(c3ccc(Cl)cc3)C2)c(C)c1Cl (centres undefined) | label 0
* COc1cc2c(cc1OCCCCCCN1CCN(CC(=O)Nc3ccc(Cl)cc3C(=O)c3ccccc3Cl)CC1)N=CC1CCCN1C2=O (centres undefined) | label 1
* COc1ccc2[nH]c(O)c(/C=c3/cc4c(c(-c5ccc(F)c(OC)c5)n3)=Nc3ccccc3-4)c2c1 | label 0
* O=C(c1ccccc1)c1c(NCC(O)CN2CCOCC2)n(Cc2ccccc2)c(=O)n(Cc2ccccc2)c1=O (centres undefined) | label 0
* CN(C)c1nc2ccccc2c2c1c1c(n2Cc2ccccc2)-c2ccccc2C1=O | label 0
* COc1ncnc(S(=O)(=O)c2ccc(N=C3C(=O)N(CN4CCN(c5cc6c(cc5F)c(=O)c(C(=O)O)cn6C5CC5)CC4)c4ccc(Cl)cc43)cc2)c1OC | label 0
* C1CC[N-]CC1.CC(=N\O)/C(C)=N/O.CC(=N\O)/C(C)=N/O.OC1[CH-]CCCC1.[Co+2] | label 0
* N.N.N.N.N.O=[N+]([O-])[O-].[Co+3].[O-][Cl+3]([O-])([O-])[O-] | label 0
* COc1cnc2c(c1)C(=O)c1c-2n(CCCNCCO)c(=O)c2ccncc12 | label 0
* Cn1cc(C2=C(c3cn(C)c4ccc(Cl)cc34)C(=O)NC2=O)c2ccccc21 | label 0
* Cc1nn2c(/C=C3/C(=O)Nc4cc(Cl)ccc43)c(-c3ccccc3)nc2s1 | label 0

====

test system: OVCAR-4 ovarian; assay: NCI tumour cell line growth inhibition, 48 h
Listing of recorded TGI by entry.
metric: TGI

* O=C(O)COc1cc(-c2ccccc2)nc2cc(F)ccc12 | > 100 µM
* Cc1nn(-c2ccccc2)c(C)c1/C=N/N=C1\S/C(=C\c2ccc(Cl)cc2)C(=O)N1c1ccccc1 | 4.74 µM
* O=C(N/N=C/C=C/c1ccccc1)c1ccccc1Nc1ccccc1C(=O)N/N=C/C=C/c1ccccc1 | > 100 µM
* Nc1ccc(S(=O)(=O)Nc2nc3ccccc3nc2N2CCCCCC2)cc1 | 50.9 µM
* NCC(O)CSCc1ccc(Cl)cc1 (stereo not given) | > 100 µM
* C1=C2CCCC3=Cc4ccccc4OC23Oc2ccccc21 | > 100 µM
* C#CCn1c(=O)c(C)cn(/C(=C\C(=O)OCC)C(=O)OCC)c1=O | 6.35 µM
* Cc1ccc(S(=O)(=O)Nc2nnc(S(N)(=O)=O)s2)cc1 | > 100 µM
* CC1=NN(C(=O)c2ccc(Cl)cc2)C(=O)/C1=C/c1ccccc1O | > 100 µM
* COC(=O)C1=C(C(=O)OC)C2(C)C=CC1O2 (stereo not given) | 27.2 µM

====

system: UACC-62 melanoma; assay: NCI tumour cell line growth inhibition, 48 h
Listing of recorded TGI by entry.
metric: TGI

- O=c1[nH]c2nc(NC3CCOCC3)ncc2cc1Oc1ccc(F)cc1F: > 25 µM
- CCOC(=O)c1cc2c([N+](=O)[O-])c(N)ccc2s1: > 100 µM
- COc1cc(C)c(C2NC(=O)c3ccccc3N2)cc1C (stereo not given): > 100 µM
- Cc1cc(N=C2C=C(Br)C(=O)C(Br)=C2)cc(CN(CC(=O)O)CC(=O)O)c1O: > 100 µM
- O=c1c(-c2ccccc2)c(SCCO)n(-c2ccccc2)c(=S)n1-c1ccccc1: > 100 µM
- c1ccc(-c2nc(N3CCOCC3)c3c4c(sc3n2)CCCCCC4)nc1: 14.3 µM
- COc1ccc2cc(CNCCCCCCNCc3ccc4cc(OC)ccc4c3)ccc2c1: 2.8 µM
- COc1ccc(C(O)c2cc3c(N)c(C(=O)Nc4cccc(Cl)c4)sc3nc2C)cc1 (stereo not given): > 80.2 µM
- O=C(Nn1c(-c2ccccc2)nc2ccccc2c1=O)c1ccccc1O: 77.2 µM
- CSCCCNC(=O)c1ccc2c(c1)/C(=C/c1[nH]c(C)cc1C)C(=O)N2: > 100 µM
- O=c1/c(=C\c2ccc(F)cc2)sc2n1C(c1ccc(F)cc1)C1=C(N=2)c2ccc3ccccc3c2OCC1 (stereo not given): > 100 µM
- C=C(C)[C@H]1C2=CC(C)=C(O2)[C@@H](O[C@@H]2c3oc(cc3C)[C@H](C(=C)C)[C@H]3C=C(CC[C@H]2C(=C)C)C(=O)O3)[C@H](C(=C)C)CCC2=C[C@H]1OC2=O: > 100 µM
- Cc1cc(O)c(C2=NN(c3ccc(S(N)(=O)=O)cc3)C(c3ccc(Cl)cc3)C2)c(C)c1Cl (stereo not given): 15.1 µM
- CC1=Cc2ccc(C)cc2C(=O)C1=O: 40.3 µM
- C=CCC1=C(C)C[C@@H]2CCC(=O)C=C12: > 100 µM
- N/N=C1\C(=O)N(c2ccc(Cl)cc2Cl)C(=O)C(=O)C1c1nc2ccccc2o1 (stereo not given): > 100 µM
- O=C(CCN1CCN2c3ccccc3CCC2C1)c1ccc(F)cc1 (stereo not given): > 100 µM
- CN(C)/N=N/c1nc2c(c(=O)n(C)c(=O)n2C)n1CC(O)CO (stereo not given): > 100 µM
- Nc1nc(Cl)cc(NC23CC4CC(CC(C4)C2)C3)n1: > 100 µM
- COC(=O)C1C(O)C(C)C(O)C(C)C=C(C)C2=C3C(=C(C)C(=O)c4c(O)c(c(C)c(OC(C)=O)c43)NC(=O)C(C)=C/C=C\C(C)C(O)C(C)C1O)OCO2 (stereo not given): 74.5 µM
